Can you tell me % Inhibition for the items I'm about to list?
Tested on: human Factor 7 mRNA
Assay: Antisense inhibition of human Factor 7 with short (14-mer) oligonucleotides in HepB3 cells, electroporation 1,000 nM
Type: cell-based
Conditions: electroporation, 1,000 nM antisense oligonucleotide, approximately 24 hours, Factor 7 mRNA relative to untreated control cells
Strand notation (5' to 3'): a small letter for the sugar, then the base; units joined by * are phosphorothioate-linked, units joined directly phosphodiester-linked; [ ] holds rarer units or linkages, { } end groups; capitals alone tell only the bases. e = 2'-O-(2-methoxyethyl) (MOE); [5mC] = 5-methylcytosine; d = 2'-deoxy (DNA)
Please give a number only; it is taken to be in %.

Look up % Inhibition for this substance: 435740 (antisense eT*e[5mC]*dA*dT*dT*dT*d[5mC]*dA*dG*dT*dG*dA*eT*eG) [compound 435740]
0

Look up % Inhibition for this substance: 435721 (antisense eT*eA*dA*dG*dG*dA*dG*dG*d[5mC]*dT*d[5mC]*dA*eG*e[5mC]) [compound 435721]
12

Look up % Inhibition for this substance: 435797 (antisense eA*eA*dT*d[5mC]*dT*dT*dG*dG*d[5mC]*d[5mC]*d[5mC]*d[5mC]*eT*e[5mC]) [compound 435797]
16

Look up % Inhibition for this substance: 435747 (antisense eA*eT*dA*dT*d[5mC]*dA*dT*dT*dG*dA*d[5mC]*dA*eA*eG) [compound 435747]
0

Look up % Inhibition for this substance: 435675 (antisense eT*eG*dT*d[5mC]*dG*dA*dA*dA*d[5mC]*dA*dG*dT*eG*eG) [compound 435675]
24

Look up % Inhibition for this substance: 435666 (antisense eG*eG*dT*dT*dT*dG*d[5mC]*dT*dG*dG*d[5mC]*dA*eT*eT) [compound 435666]
71

Look up % Inhibition for this substance: 435482 (antisense eT*eG*dG*dG*dT*d[5mC]*dA*dT*d[5mC]*dA*dG*d[5mC]*e[5mC]*eG) [compound 435482]
62

Look up % Inhibition for this substance: 435692 (antisense e[5mC]*eG*dG*dT*d[5mC]*d[5mC]*dA*dG*d[5mC]*dA*dG*d[5mC]*eT*eG) [compound 435692]
32

Look up % Inhibition for this substance: 435657 (antisense eG*e[5mC]*dA*dG*dT*dA*d[5mC]*dT*dG*d[5mC]*dT*d[5mC]*eA*e[5mC]) [compound 435657]
69

Look up % Inhibition for this substance: 435849 (antisense eT*eG*d[5mC]*d[5mC]*dG*dT*dA*dG*dT*dG*dG*d[5mC]*e[5mC]*eG) [compound 435849]
31

Look up % Inhibition for this substance: 435691 (antisense e[5mC]*eA*dG*d[5mC]*d[5mC]*dG*d[5mC]*dT*dG*dA*d[5mC]*d[5mC]*eA*eA) [compound 435691]
25

Look up % Inhibition for this substance: 435485 (antisense eT*e[5mC]*d[5mC]*dT*dG*dG*dG*dT*d[5mC]*dA*dT*d[5mC]*eA*eG) [compound 435485]
34

Look up % Inhibition for this substance: 435834 (antisense eT*eG*dA*d[5mC]*dA*dG*d[5mC]*dA*d[5mC]*dG*dA*dA*eG*e[5mC]) [compound 435834]
20

Look up % Inhibition for this substance: 435681 (antisense eA*eT*dG*dA*d[5mC]*d[5mC]*dT*dG*d[5mC]*dG*d[5mC]*d[5mC]*eA*e[5mC]) [compound 435681]
40

Look up % Inhibition for this substance: 435824 (antisense e[5mC]*e[5mC]*dT*dA*dA*dA*dG*dA*dT*dG*dA*dA*eT*e[5mC]) [compound 435824]
21

Look up % Inhibition for this substance: 435794 (antisense eG*eA*dG*dG*dT*dA*d[5mC]*dA*d[5mC]*dA*dG*dG*e[5mC]*eT) [compound 435794]
26

Look up % Inhibition for this substance: 435778 (antisense eG*e[5mC]*dT*dA*d[5mC]*dT*dG*dG*dG*d[5mC]*d[5mC]*dA*e[5mC]*eG) [compound 435778]
49

Look up % Inhibition for this substance: 435739 (antisense e[5mC]*eA*dT*d[5mC]*dT*d[5mC]*dA*dG*dA*dG*dG*dA*eT*eG) [compound 435739]
5

Look up % Inhibition for this substance: 435732 (antisense eG*eA*dA*dA*dA*dG*dT*dG*dA*dG*dA*dG*e[5mC]*eT) [compound 435732]
0

Look up % Inhibition for this substance: 435664 (antisense eT*eT*dT*dT*dT*d[5mC]*d[5mC]*dA*d[5mC]*dA*dT*dG*eG*eA) [compound 435664]
4

Look up % Inhibition for this substance: 435847 (antisense eT*eG*dG*dT*dG*dT*dG*d[5mC]*dA*d[5mC]*dA*d[5mC]*eA*eT) [compound 435847]
36

Look up % Inhibition for this substance: 435698 (antisense e[5mC]*e[5mC]*dT*dT*dG*d[5mC]*dA*dG*dG*dA*dG*dT*e[5mC]*e[5mC]) [compound 435698]
61

Look up % Inhibition for this substance: 435823 (antisense eT*eG*dA*dG*dT*d[5mC]*d[5mC]*d[5mC]*dA*dG*dG*d[5mC]*eT*eG) [compound 435823]
41

Look up % Inhibition for this substance: 435738 (antisense e[5mC]*eA*dG*dA*dG*dG*dA*dT*dG*dA*dG*d[5mC]*eA*e[5mC]) [compound 435738]
16

Look up % Inhibition for this substance: 435694 (antisense e[5mC]*eT*dG*d[5mC]*dA*dG*dG*d[5mC]*dA*dG*dT*d[5mC]*e[5mC]*eT) [compound 435694]
39

This collection of values is drawn from patent US9029337B2.
